Cited source: PubChem BioAssay

assay: cell viability in Huh7 cells, primary screen, cytotoxicity control for HCV replication inhibitor project, CellTiter-Glo luminescence, basal, 48 h (AID 1143); details: Huh7 HCV replicon, higher = more signal, called active from +8 up or from −8 down;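 also: Huh7 hepatoma cells carrying a hepatitis C replication reporter with no stimulus; test concentration not given here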
Lab note: anything with z-score at or over -2 counts as yes; the rest go in no.

Answered cases to consult:
| compound-structure-string | class-name |
| --- | --- |
| CCc1cc2c(nc1CC)CCN(CCC(C)=NO[C@@H](C)c1cc(-c3c(C)cc(C)cc3C)no1)C2 | no |
| C[C@@H](c1ccccc1)N1C(=O)[C@H]2[C@H]3[C@H](O)C=CC(=O)[C@@H]3CC[C@H]2C1=O | yes |
| C=COC[C@H]1CN2[C@@H](CC[C@@H](C)[C@@H]2c2ccc(Br)cc2)C(=O)O1 | yes |

Could you verify whether the entry `CCOC(=O)CCN1C(=O)[C@H]2[C@H]3[C@H](O)[C@H](O)CC(=NNC(=O)OCc4ccc(OC)cc4)[C@@H]3CC[C@H]2C1=O` shows z-score of no less than -2?
yes

Could you verify whether the entry `CC(=O)OC[C@H]1O[C@H](CC=NOC[C@@H](C)[C@H](OCc2ccccc2)C(C)C)C=C[C@@H]1OC(C)=O` shows z-score of no less than -2?
yes

Could you verify whether the entry `O=C1C2=CC[C@H]3C(=O)N(Cc4ccc5c(c4)OCO5)C(=O)[C@H]3[C@H]2[C@H](O)[C@@H]2O[C@H]12` shows z-score of no less than -2?
yes

Could you verify whether the entry `NC(=O)NCC#Cc1ccc2c(c1)[C@]1(C(=O)N2)[C@H](c2ccc(O)cc2)N2[C@H](c3ccccc3)[C@H](c3ccccc3)OC(=O)[C@H]2[C@@H]1C(=O)N1CCCCCCC1` shows z-score of no less than -2?
yes

Could you verify whether the entry `CC(C)NC(=O)[C@@H]1c2ccccc2C(=O)N(CC23CC4CC(CC(C4)C2)C3)[C@H]1c1ccc(CO)cc1` shows z-score of no less than -2?
no

Could you verify whether the entry `COc1ccc(O[C@H]2C=C[C@@H](c3ccccc3)O[C@@H]2COC(=O)N2CCCCC2)cc1` shows z-score of no less than -2?
yes
